molecular target: Estrogen receptor (Homo sapiens); assay: qHTS assay to identify small molecule agonists of the estrogen receptor alpha (ER-alpha) signaling pathway using the BG1 cell line (AID 743079); conditions: BG1Luc4E2 cells, ERE-luciferase agonist, 22 h; series mostly up to 70.3 µM; note: nearly all actives have a fitted effect of over 20% in size
Inconclusive results are not listed. The source made the active and inactive calls. Calls come from the whole dose curve; as a rule, active = well fitted activation curve with a large enough effect in the repeat runs; inconclusive = weak or mixed curves, or effect the other way; inactive = no such curve, though single readings can be large or run the other way.
endpoint: outcome

                        molecular_string  data_value
0  CN1CCN(C2=Nc3ccccc3Oc3ccc(Cl)cc32)CC1    inactive
1                  Cc1c[nH]c(=S)[nH]c1=O    inactive
2                   CCOc1ccc(OCC)c(Cl)c1    inactive

----------
biological target: Cytochrome P450 2C9 (Homo sapiens) (UniProt P11712); test: Cytochrome P450 Family 2 Subfamily C Member 9 (CYP2C9) small molecule antagonists: luciferase reporter qHTS assay (AID 1671198); conditions: P450-Glo CYP2C9 enzyme assay, luciferin luminescence; series mostly up to 53 µM; note: nearly all actives have a fitted effect of over 50% in size; note: potency is the fitted concentration of half-maximal effect
Sequence (P11712 whole entry, looked up): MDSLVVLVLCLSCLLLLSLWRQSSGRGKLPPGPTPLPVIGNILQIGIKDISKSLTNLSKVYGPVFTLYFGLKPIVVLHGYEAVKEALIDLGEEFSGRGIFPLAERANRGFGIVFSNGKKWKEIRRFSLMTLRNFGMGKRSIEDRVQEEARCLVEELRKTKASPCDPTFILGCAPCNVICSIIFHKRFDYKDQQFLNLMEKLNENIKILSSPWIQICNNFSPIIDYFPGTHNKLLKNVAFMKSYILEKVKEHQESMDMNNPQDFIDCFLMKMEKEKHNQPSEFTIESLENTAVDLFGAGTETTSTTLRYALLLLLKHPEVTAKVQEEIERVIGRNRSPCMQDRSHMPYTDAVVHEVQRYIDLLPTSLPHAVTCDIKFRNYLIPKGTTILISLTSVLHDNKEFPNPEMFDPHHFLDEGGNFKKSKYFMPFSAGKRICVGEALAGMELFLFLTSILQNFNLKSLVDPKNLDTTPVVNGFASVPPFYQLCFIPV
Records with an inconclusive call do not appear. Active and inactive are the calls of the source. Calls come from the whole dose curve; as a rule, active = well fitted inhibition curve with a large enough effect in the repeat runs; inconclusive = weak or mixed curves; inactive = no such curve, though single readings can be large or run the other way.
endpoint: Potency

>>> df
                                    molecule  endpoint        data_value
 0  CNCCC(Oc1ccccc1OC)c1ccccc1 (stereo unspecified)   Potency          inactive
 1                       CCC(=O)Nc1ccc(O)cc1   Potency          inactive
 2                        CCCCCCCCCC/C=C/C#N   Potency          inactive
 3            COC(=O)c1ccc2cc(C(=O)OC)ccc2c1   Potency          inactive
 4  O=C(O)CN(CCN(CC(=O)O)CC(=O)O)CCN(CC(=O)O)CC(=O)O   Potency          inactive
 5  CCCCC(CC)COC(=O)COc1cc(Cl)c(Cl)cc1Cl (stereo unspecified)   Potency  8.94 µM (active)
 6                        O=C(O)[C@@H]1CSCN1   Potency          inactive
 7                        CCCCCCOc1ccc(N)cc1   Potency  22.4 µM (active)
 8       Cc1cc(NS(=O)(=O)c2ccc(N)cc2)nc(C)n1   Potency          inactive
 9                               CC(C)OC(C)C   Potency          inactive
10                         Cc1ccc(C(C)C)cc1O   Potency  15.9 µM (active)
11                  COc1cc2c(cc1N)oc1ccccc12   Potency  6.46 µM (active)
12                       COC(=O)c1ccc(OC)cc1   Potency          inactive
13  O=c1oc2c(O)c(O)cc3c(=O)oc4c(O)c(O)cc1c4c23   Potency          inactive
14                                  C=CCCC=C   Potency          inactive
15                    CC1=CC(=O)CC(C)(C)C1=O   Potency          inactive
16                        Cc1ncc(CO)c(CN)c1O   Potency          inactive
17  NS(=O)(=O)c1cc(-c2nn[nH]n2)c(NCc2cccs2)cc1Cl   Potency  24.5 µM (active)
18                 CN(C)CCOc1ccccc1Cc1ccccc1   Potency          inactive
19  Cc1ccccc1C(=O)Nc1ccc(C(=O)N2CCCC(O)c3cc(Cl)ccc32)c(C)c1 (stereo unspecified)   Potency  15.5 µM (active)
20  CC(=O)O[C@H]1CC[C@@]2(C)C(=CC[C@@H]3[C@@H]2CC[C@]2(C)C(C(C)=O)=CC[C@@H]32)C1   Potency          inactive
21  NNS(=O)(=O)c1ccc(Oc2ccc(S(=O)(=O)NN)cc2)cc1   Potency  5.03 µM (active)
22  COc1ccccc1N1CCN(CCCNc2cc(=O)n(C)c(=O)n2C)CC1   Potency          inactive
23               CCN(CCCc1ccccc1)CCCc1ccccc1   Potency          inactive
24                              CCOc1ccccc1N   Potency  31.5 µM (active)
25      CCCCCCCCOC(=O)CCCCCCCCC(=O)OCCCCCCCC   Potency          inactive

Reference for the values: PubChem BioAssay (Tox21)
